biological target: PARP1 (Homo sapiens); construct: purchased Trevigen, Gaithersburg, Md; assay: Colorimetric PARP1 activity assay (Trevigen), IC50 determination; type: biochemical; conditions: Example 1; 0.5 units PARP HSA, 10 minutes; read-out: IC50
readout.kind: IC50 (nM)

> print(dat)
                                   compound  unit.descriptor  quantitative.readout
1  O=C(CCCC(=O)N1CCN(C(=O)c2cc(Cc3n[nH]c(=O)c4ccccc34)ccc2F)CC1)NCCNC(=O)C1C[C@@H]2C=C[C@H]1C2 (stereo partly shown)               nM                  10.1

###

target: PARP1 (Homo sapiens, UniProt P09874); construct: purchased Trevigen, Gaithersburg, Md; assay: Colorimetric PARP1 activity assay (Trevigen), IC50 determination; type: biochemical
Sequence (P09874 whole entry): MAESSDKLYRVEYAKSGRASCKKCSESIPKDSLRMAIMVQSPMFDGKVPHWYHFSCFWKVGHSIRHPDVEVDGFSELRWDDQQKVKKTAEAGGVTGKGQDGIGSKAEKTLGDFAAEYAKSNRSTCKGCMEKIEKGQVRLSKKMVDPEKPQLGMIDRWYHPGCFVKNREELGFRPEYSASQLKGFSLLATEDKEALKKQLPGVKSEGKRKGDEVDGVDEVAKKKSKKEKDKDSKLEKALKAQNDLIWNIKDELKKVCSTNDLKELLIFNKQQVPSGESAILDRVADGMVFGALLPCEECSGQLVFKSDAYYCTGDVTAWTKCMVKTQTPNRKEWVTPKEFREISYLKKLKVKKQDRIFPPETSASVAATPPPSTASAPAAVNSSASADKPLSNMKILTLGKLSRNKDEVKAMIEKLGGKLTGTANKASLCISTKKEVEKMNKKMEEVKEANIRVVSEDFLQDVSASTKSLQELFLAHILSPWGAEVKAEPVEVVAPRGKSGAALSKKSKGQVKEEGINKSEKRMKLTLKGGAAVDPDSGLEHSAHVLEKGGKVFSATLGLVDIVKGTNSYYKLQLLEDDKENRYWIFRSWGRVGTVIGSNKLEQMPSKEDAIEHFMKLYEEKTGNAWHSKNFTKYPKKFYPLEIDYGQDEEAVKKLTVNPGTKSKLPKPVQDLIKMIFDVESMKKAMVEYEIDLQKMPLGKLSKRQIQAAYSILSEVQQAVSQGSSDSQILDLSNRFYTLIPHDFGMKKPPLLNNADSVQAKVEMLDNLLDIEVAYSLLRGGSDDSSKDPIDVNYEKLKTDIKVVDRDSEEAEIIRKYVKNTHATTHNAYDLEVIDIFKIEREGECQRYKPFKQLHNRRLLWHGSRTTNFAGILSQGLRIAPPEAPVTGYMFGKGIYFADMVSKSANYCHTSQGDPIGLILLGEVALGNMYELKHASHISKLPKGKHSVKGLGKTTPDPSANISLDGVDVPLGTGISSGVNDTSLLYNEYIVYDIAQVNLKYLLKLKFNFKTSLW
pIC50: −log10 of the molar value.
readout.kind: pIC50

> print(dat)
                                   compound  quantitative.readout
1  O=C(CF)N1CCN(C(=O)c2cc(Cc3n[nH]c(=O)c4ccccc34)ccc2F)CC1 [17^19F]                  8.28
